Kindly supply the reported self-cleavage values for the records listed here.
B1: HDV Ribozyme (parent)
chain: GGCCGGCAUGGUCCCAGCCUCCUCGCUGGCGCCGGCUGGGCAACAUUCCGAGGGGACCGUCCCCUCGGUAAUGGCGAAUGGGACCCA

Variants of: B1
Assay: self-cleavage, relative activity (ratio to wild type); higher = more cleavage; co-transcriptional
Numbers only.

// solved cases for self-cleavage follow
# sequence input, self-cleavage
measured = [
    ("GGCCGGCAUGGUCCCAACCUCCUCGCUGGCGCCGGCUGGGCAACAUUCCGAGGGGACCGUCCCCUCGGUAAUGUCGAAUGGGACCCA [G17A G74U]", 0.197),
    ("GGCCGGCAUGGUCCCAGCCUCCUCGCUGGCGCCGGCUGGGCAACAUUCCGAGGGGACACUCCCCUCGGUAAUGGCGAAUGGGACCCA [C58A G59C]", 0.904),
    ("GGCCGGCAUGGUCCCAGCCUCCUCGCUGGCGCCGGCUGGGCAACAUGCCGAGGGGACCGUCCCCUCGGUGAUGGCGAAUGGGACCCA [U47G A70G]", 1.01),
    ("GGCCGGCAUGGUCCCAGCCUCGUCGAUGGCGCCGGCUGGGCAACAUUCCGAGGGGACCGUCCCCUCGGUAAUGGCGAAUGGGACCCA [C22G C26A]", 0.156),
    ("GGCCGGCAUGGUCCCAGCCUCCUCCCUGGCGCCGGCUGGGCAACAUUCCGAGGGGACCGUCCCCUCGGUAAUGCCGAAUGGGACCCA [G25C G74C]", 0),
    ("GGGCGGCAUGGUCCCAGCCUCCUCGCUGGCGCCGGCUGGGCAACAUUCCGAGGGGACCGUCACCUCGGUAAUGGCGAAUGGGACCCA [C3G C62A]", 0.789),
    ("GGCCGGCAUGGUCCCAGCCUCCUCGCUGGCGCCGGCUGGGUAACAUUCCAAGGGGACCGUCCCCUCGGUAAUGGCGAAUGGGACCCA [C41U G50A]", 1.01),
    ("GGCCGGCAUGGUCCCAGCCUCCUCGCUGGCGCCGGCUGGGCAACAUUCCGACGGAACCGUCCCCUCGGUAAUGGCGAAUGGGACCCA [G52C G55A]", 0.901),
    ("GUCCGGCAUGGUCCCAGCCUCCUGGCUGGCGCCGGCUGGGCAACAUUCCGAGGGGACCGUCCCCUCGGUAAUGGCGAAUGGGACCCA [G2U C24G]", 0.0225),
    ("GGCCGGCUUGGUCCCAGCCUCCUCGCUGUCGCCGGCUGGGCAACAUUCCGAGGGGACCGUCCCCUCGGUAAUGGCGAAUGGGACCCA [A8U G29U]", 0.0437),
]

Hey, can you go through the list below and give me self-cleavage for every item?
1. GGCCGGCAUGGUCCCAGCCUCCUCGCUGGCGCCGGCUGGGCAACAUUCUGCGGGGACCGUCCCCUCGGUAAUGGCGAAUGGGACCCA [C49U A51C]
2. GGUCGGCAUGGUCCCAGCCUCCUCGCUGGCGCCGGCUGGGCAACAUUCCGAGGGGACCGUUCCCUCGGUAAUGGCGAAUGGGACCCA [C3U C61U]
3. GGCAGGCAUGGUCCCAGCCUACUCGCUGGCGCCGGCUGGGCAACAUUCCGAGGGGACCGUCCCCUCGGUAAUGGCGAAUGGGACCCA [C4A C21A]
4. GGCCGGCAUGGUCCCAGCCUCCUCGCUGGAGCCGGCUGGGCAACAUUCCGAGGGGACCGUCCCCUCGGUAAUGGCGAAUGUGACCCA [C30A G81U]
5. GGCCGGCAUGGUCCCAGCCUCCUCGCUGGCGCCGGCUGGGCAACAUUCCGAGGGGACCGUCCCCUUGAUAAUGGCGAAUGGGACCCA [C66U G68A]
6. GGCCGGUAUGGUCCCAGCCUCCUCGCUGGCGCCGGCUGGGCAACAUUCCGAGGGGACCGUCCCCUCGGUAAUGGCGAGUGGGACCCA [C7U A78G]

Response line:
1. 0.712
2. 0.923
3. 0
4. 0.134
5. 0.92
6. 0.375

Quick batch: self-cleavage for everything below.
1. GGCCGGCCUGGUCCCAGCCUCCUCGCUGGCGCCGGCUGGGCAACAUUCCGAGGGGACCGUCCCCUCGGUAUUGGCGAAUGGGACCCA [A8C A71U]
2. GGCCGGCAUGGUCCCAGCCUCCUCGCUGGCGCCGGCUGGGCAACAUUCCGAGGGUACCGUCCUCUCGGUAAUGGCGAAUGGGACCCA [G55U C63U]
3. GGCCGGCAUGGUCCCAGCUUCCUCGCUGGCGCCGGCUGGGCAACAUUCCGAGGGGACCGUCCCCUCGGUAAUGGCCAAUGGGACCCA [C19U G76C]
4. GGCCGGCAUGGUCCCAGCCUCCUCGCUGGCUCCGGCUGGGCAACAUUCCGAGGGGACCGUCCCCUCGGGAAUGGCGAAUGGGACCCA [G31U U69G]
5. GGCCGGCUUGGUCCCAGCCUCCUCGAUGGCGCCGGCUGGGCAACAUUCCGAGGGGACCGUCCCCUCGGUAAUGGCGAAUGGGACCCA [A8U C26A]

Response line:
1: 0.427; 2: 0.997; 3: 0.277; 4: 0.386; 5: 0.997

Origin of the recorded values: the RNAGym collection of RNA variant scans (doi:10.7554/elife.80360)
